Values from the RNAGym collection of RNA variant scans (doi:10.7554/elife.80360)

B1: CPEB3 Ribozyme (parent)
chain: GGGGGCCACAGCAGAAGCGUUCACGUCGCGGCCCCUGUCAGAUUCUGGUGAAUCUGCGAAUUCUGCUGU

- Variants of: B1
- test-description: self-cleavage, relative activity (ratio to wild type); higher = more cleavage; co-transcriptional
// thresholds for self-cleavage classes: 0 (below 0.3), 1 (0.3 to below 0.8), 2 (0.8 or more)

Hi, small favor: classify G31A C39A by its self-cleavage when you get a moment. 1

Hi, small favor: classify A23U U61C by its self-cleavage when you get a moment. 2

Others:
Hi, small favor: classify G1U C34U by its self-cleavage when you get a moment. 0
